protocol summary: in vivo
measurement setup: rat, plasma, ip, 10 mg/kg
property measured: AUC(0-t) (µM·h)

# structure as smiles, val
measured = [
    ("O=C(O)c1cc(-c2cccc(-c3ccc4c(c3)CN(C3CCCC3)C4=O)c2)ccc1Cl", 3.23),
]

---

protocol summary: in vivo
measurement setup: rat, plasma, iv, 2 mg/kg
This section presents compounds with their documented AUC(0-t) values.
property measured: AUC(0-t) (µM·h)

# compound, property measured, val
measured = [
    ("O=C(O)c1cc(-c2cccc(COc3ccc4c(c3)CN(C3CCCC3)C4=O)c2)ccc1O [Compound 15b]", "AUC(0-t)", 2.57),
    ("O=C(O)c1cc(-c2cccc(COc3ccc4c(c3)CN(C3CCCC3)C4=O)c2)ccc1Cl", "AUC(0-t)", 11.8),
]
